Task for the reader: assign each of the following compounds its reported pest or weed control at 500 ppm.
system: Botrytis cinerea; assay: In vivo preventive test on Botrytis cinerea (grey mould) on gherkin, Examples B, Q1 and R2; conditions: Botrytis cinerea, 500 ppm of active ingredient, preventive spray, evaluated 4 to 5 days after inoculation, read-out: efficacy

Report pest or weed control at 500 ppm for OC(Cc1cccc(Cl)c1Cl)(Cn1cncc1Cl)C1(Cl)CC1 (stereo not shown) please. 70 to 79%

Report pest or weed control at 500 ppm for N#Cc1cncn1CC(O)(Cc1ccccc1Cl)C1(F)CC1 (stereo not shown) please. 70 to 79%

Report pest or weed control at 500 ppm for Cc1ccc(CC(O)(Cn2cncc2Cl)C2(Cl)CC2)cc1 (stereo not shown) please. 90 to 100%

Report pest or weed control at 500 ppm for OC(Cc1ccccc1)(Cn1cncc1Cl)C1(Cl)CC1 (stereo not shown) please. 90 to 100%

Report pest or weed control at 500 ppm for CC(C)C(O)(Cc1ccc(Cl)cc1F)Cn1cncc1C#N (stereo not shown) please. 90 to 100%

Report pest or weed control at 500 ppm for OC(Cc1cc(Cl)ncc1Cl)(Cn1cncc1Cl)C1(Cl)CC1 (stereo not shown) please. 80 to 89%

Report pest or weed control at 500 ppm for CC(C)C(O)(Cc1ccccc1Cl)Cn1cncc1C#N (stereo not shown) please. 90 to 100%

Report pest or weed control at 500 ppm for N#Cc1cncn1CC(O)(Cc1ccccc1)C1(Cl)CC1 (stereo not shown) please. 90 to 100%

Report pest or weed control at 500 ppm for OC(Cc1ccccc1Cl)(Cn1cncc1I)C1(Cl)CC1 (stereo not shown) please. 90 to 100%

Report pest or weed control at 500 ppm for N#Cc1cncn1CC(O)(Cc1ccccc1F)C1CCC1 (stereo not shown) please. 70 to 79%

Report pest or weed control at 500 ppm for N#Cc1cncn1CC(O)(Cc1cccc(F)c1F)C1(Cl)CC1 (stereo not shown) please. 90 to 100%

Report pest or weed control at 500 ppm for N#Cc1cncn1CC(O)(Cc1ccc(Cl)cc1F)C1(Cl)CC1 (stereo not shown) please. 90 to 100%

Report pest or weed control at 500 ppm for OC(Cc1ccc(Cl)cc1F)(Cn1cncc1Cl)C1(Cl)CC1 (stereo not shown) please. 90 to 100%
